- System: flaviviral polymerases (DENV3, TBEV, JEV, WNV, ZIKV, YFV)
- Format: biochemical, flaviviruses
- condition.info: read-out: IC50 range, all the tested flaviviral polymerases
pIC50: −log10 of the molar value.
endpoint: pIC50

Data point: CCC(CC)COC(=O)[C@H](C)N[P@](=O)(OC[C@H]1O[C@@](C#N)(c2ccc3c(N)ncnn23)[C@H](O)[C@@H]1O)Oc1ccccc1 [remdesivir, Remdesivir] ; pIC50 = 5.66 to 6.70
